# Test system: Staphylococcus aureus
# assay name: Minimum inhibitory concentration against Staphylococcus aureus (H-228).
# Format: functional
Rule: measured MIC below 0.8 µg/mL gets Fulfilled; anything equal to or greater than 0.8 µg/mL gets Not fulfilled.

Use the examples below as a reference point.
compound	label value
CCNCC1CCN(c2c(F)cc3c(=O)c(C(=O)O)cn(CC(F)(F)F)c3c2F)C1 (stereo not given)	Fulfilled
CCNCC1CCN(c2c(F)cc3c(=O)c(C(=O)O)cn(CCF)c3c2F)C1 (stereo not given)	Fulfilled
CCNCC1CCN(c2c(F)cc3c(=O)c(C(=O)O)cn(C)c3c2F)C1 (stereo not given)	Not fulfilled
CCNCC1CCN(c2c(F)cc3c(=O)c(C(=O)O)cn(CC4CC4)c3c2F)C1 (stereo not given)	Fulfilled
CCNCC1CCN(c2c(F)cc3c(=O)c(C(=O)O)cn(C4CCC4)c3c2F)C1 (stereo not given)	Fulfilled
CCNCC1CCN(c2c(F)cc3c(=O)c(C(=O)O)cn(C(C)C)c3c2F)C1 (stereo not given)	Fulfilled
CCNCC1CCN(c2c(F)cc3c(=O)c(C(=O)O)cn(C4(C)CC4)c3c2F)C1 (stereo not given)	Fulfilled

State whether 0.8 µg/mL exceeds MIC recorded for CCNCC1CCN(c2c(F)cc3c(=O)c(C(=O)O)cn(C4CCCCC4)c3c2F)C1 (stereo not given) .
Not fulfilled

====

Here, each record is paired with measured MIC data.
# System: Enterobacter cloacae
# assay name: Minimum inhibitory concentration against Enterobacter cloacae. (MA2446).
# Format: functional
Lab book: enter the figure in µg/mL, no units written.

compound	unit info	assay value
CCNCC1CCN(c2c(F)cc3c(=O)c(C(=O)O)cn(NC)c3c2F)C1 (configuration not stated)	µg/mL	0.2

Data request, read-out MIC, for CCNCC1CCN(c2c(F)cc3c(=O)c(C(=O)O)cn(C(C)C)c3c2F)C1 (configuration not stated)
1.6

====

# Tested on: Mus musculus
# assay name: In vivo activity against Pseudomonas aeruginosa (sc)
# Type: functional
# reported conditions: read-out: PD50
Rule: measured ED50 below 10 mg/kg gets Fulfilled; anything equal to or greater than 10 mg/kg gets Not fulfilled.

Use the examples below as a reference point.
molecule	label value
CN1CCN(c2cc3c(cc2F)c(=O)c(C(=O)O)cn3-c2ccc(F)cc2)CC1	Not fulfilled
CCNCC1CCN(c2c(F)cc3c(=O)c(C(=O)O)cn(C4CC4)c3c2F)C1 (stereo not given)	Not fulfilled
CCn1cc(C(=O)O)c(=O)c2cc(F)c(N3CCNCC3)cc21	Not fulfilled

State whether 10 mg/kg exceeds ED50 recorded for CCNCC1CCN(c2c(F)cc3c(=O)c(C(=O)O)cn(CC)c3c2F)C1 (stereo not given) .
Not fulfilled

State whether 10 mg/kg exceeds ED50 recorded for O=C(O)c1cn(C2CC2)c2cc(N3CCNCC3)c(F)cc2c1=O .
Fulfilled

====

# System: Providencia rettgeri
# assay name: Minimum inhibitory concentration against Providencia rettgeri. (M1771)
# Assay type: functional
attribute measured: MIC

compound	assay value
CCNCC1CCN(c2c(F)cc3c(=O)c(C(=O)O)cn(-c4ccc(F)cc4)c3c2F)C1 (centres undefined)	1.6 µg/mL

Entry CCNCC1CCN(c2c(F)cc3c(=O)c(C(=O)O)cn(C4CCCCC4)c3c2F)C1 (centres undefined) , system Providencia rettgeri: what MIC was measured?
> 100 µg/mL

Entry CCNCC1CCN(c2c(F)cc3c(=O)c(C(=O)O)cn(NC)c3c2F)C1 (centres undefined) , system Providencia rettgeri: what MIC was measured?
1.6 µg/mL

Entry CNn1cc(C(=O)O)c(=O)c2cc(F)c(N3CCN(C)CC3)cc21 [AMIFLOXACIN] , system Providencia rettgeri: what MIC was measured?
0.2 µg/mL

====

# Tested on: Klebsiella pneumoniae
# assay name: Minimum inhibitory concentration against Klebsiella pneumoniae (MGH-2)
# Assay type: functional
Here, each record is paired with measured MIC data.
Lab book: enter the figure in µg/mL, no units written.

A selection of reference data follows.
compound	MIC / µg/mL
C=Cn1cc(C(=O)O)c(=O)c2cc(F)c(N3CCC(CNCC)C3)c(F)c21 (stereo not drawn)	0.4
CCNCC1CCN(c2c(F)cc3c(=O)c(C(=O)O)cn(C4CCC4)c3c2F)C1 (stereo not drawn)	0.4

Next item in the queue.
Entry CCNCC1CCN(c2c(F)cc3c(=O)c(C(=O)O)cn(C)c3c2F)C1 (stereo not drawn) , system Klebsiella pneumoniae: what MIC was measured?
0.4

====

# Test system: Enterobacter cloacae
# assay name: Minimum inhibitory concentration against Enterobacter cloacae. (MA2446).
# Format: functional
attribute measured: MIC (µg/mL)
Lab book: enter the figure in µg/mL, no units written.

molecule	unit info	assay value
CCNCC1CCN(c2c(F)cc3c(=O)c(C(=O)O)cn(CC)c3c2F)C1 (stereo not drawn) [MERAFLOXACIN]	µg/mL	0.2
C=Cn1cc(C(=O)O)c(=O)c2cc(F)c(N3CCC(CNCC)C3)c(F)c21 (stereo not drawn)	µg/mL	0.2

Next item in the queue.
Data request, read-out MIC, for CN1CCN(c2c(F)cc3c(=O)c(C(=O)O)cn(CCF)c3c2F)CC1 [FLEROXACIN]
0.2

====

Here, each record is paired with measured MIC data.
# System: Enterobacter cloacae
# assay name: Minimum inhibitory concentration against Enterobacter cloacae. (MA2446).
# Assay type: functional
Lab book: enter the figure in µg/mL, no units written.

A selection of reference data follows.
compound	MIC (µg/mL)
CCNCC1CCN(c2c(F)cc3c(=O)c(C(=O)O)cn(OC)c3c2F)C1 (stereo not given)	0.4
CCNCC1CCN(c2c(F)cc3c(=O)c(C(=O)O)cn(C4CC4C)c3c2F)C1 (stereo not given)	1.6
CCNCC1CCN(c2c(F)cc3c(=O)c(C(=O)O)cn(CCF)c3c2F)C1 (stereo not given)	0.2
CCNCC1CCN(c2c(F)cc3c(=O)c(C(=O)O)cn(CC(F)(F)F)c3c2F)C1 (stereo not given)	1.6
CCNCC1CCN(c2c(F)cc3c(=O)c(C(=O)O)cn(-c4ccc(F)cc4)c3c2F)C1 (stereo not given)	0.8

Data request, read-out MIC, for CCNCC1CCN(c2c(F)cc3c(=O)c(C(=O)O)cn(-c4nccs4)c3c2F)C1 (stereo not given)
1.6

Data request, read-out MIC, for CCNCC1CCN(c2c(F)cc3c(=O)c(C(=O)O)cn(CC4CC4)c3c2F)C1 (stereo not given)
3.1

Data request, read-out MIC, for CN1CCN(c2cc3c(cc2F)c(=O)c(C(=O)O)cn3-c2ccc(F)cc2)CC1 [DIFLOXACIN]
0.8

Data request, read-out MIC, for CCNCC1CCN(c2c(F)cc3c(=O)c(C(=O)O)cn(C4(C)CC4)c3c2F)C1 (stereo not given)
3.1

Data request, read-out MIC, for CCNCC1CCN(c2c(F)cc3c(=O)c(C(=O)O)cn(C)c3c2F)C1 (stereo not given)
1.6
